Target: T1, human CTLA-4 (Y201V), full length, on transfected cells (human, UniProt P16410 36-223)
T1 construct: whole, on cells; also called hCTLA-4; HEK293-hCTLA-4 (Y201V)
T1 sequence (looked up): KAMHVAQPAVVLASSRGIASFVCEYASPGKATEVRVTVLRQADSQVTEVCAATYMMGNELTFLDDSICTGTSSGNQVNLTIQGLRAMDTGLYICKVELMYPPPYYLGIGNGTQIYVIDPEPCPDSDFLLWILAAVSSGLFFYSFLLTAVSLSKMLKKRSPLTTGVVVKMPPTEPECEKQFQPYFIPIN
Experiment: FACS, human CTLA-4 expressing cells
# MFI at 1.6 nM annotations

Example cases with answers are listed next.
{"columns": ["binder", "MFI at 1.6 nM"],
 "data": [
  ["40C4C6 fully human CTLA-4 antibody (human IgG1, kappa) (antibody, V domains shown, also called mAb09; mAb009) VH: QVQLVESGGGVVQPGRSLRLSCAASGFTFSSYGMHWVRQAPGKGLEWVAVIWYDGRNKYYADSVKGRFTISRDNSKNTLYLQMNSLRAEDTAVYYCARASGSYSYYFDYWGQGTLVTVSS VL: DIQMTQSPSSLSASVGGRVTITCRASQSISSFLNWYQHELGKAPKLLIYGASSLQSGVPSRFSGSGSGTDFTLTISSLQPEDFATYYCQQTYSTPFTFGPGTKVDIK", 553],
  ["92C8B6 fully human CTLA-4 antibody (human IgG1, kappa) (antibody, V domains shown, also called mAb42; mAb042) VH: QVQLVESGGGVVQPGRSLRLSCAASGFTFSNFGMHWVRQAPGKGLEWVAVIWYDGSNKYYADSVKGRFTISRDNSKNTLFLQMNGLRAEDTAVYYCAKGGILMAGTLDYWGQGTLVTVSS VL: DIQMTQSPSSLSASVGDRVTITCRASQSVSTYLNWYQQKPGKAPKLLIYAASSFQSGVPSRFSGSGSGTDFTLTISSLQPEDFATYFCQQSYSTPFTFGPGTKVDIK", 509],
  ["31C12F3 fully human CTLA-4 antibody (human IgG1, kappa) (antibody, V domains shown, also called mAb010) VH: QVQLVESGGGVVQPGRSLILSCAASGFTFSSYGMHWVRQAPGKGLEWVAVVWYDGSNKYYADSVKGRFTISRDNSKNTLYLQMSSLRAEDTAVYYCARGGIVVPGLFEYWGQGSLVTVSS VL: DIQMTQSPSSLSASVGDRVAITCRTSQSISNLLNWYQQKPGKAPELLIYAPSSFQSGVPSRFRGSGSGTDFTLTISSLQPEDFATYYCQQSYSTPFTFGPGTKVDIK", 547]
]}

// next item, MFI at 1.6 nM requested
Q. Looking for the measured MFI at 1.6 nM of 97A8D1 fully human CTLA-4 antibody (human IgG1, kappa) (antibody, V domains shown, also called mAb49; mAb049) VH: QVQLVESGGGVVQPGRSLRLSCVASGFTFNNYGMNWVRQAPGKGLEWVAVIWYGGRNKFYADSVKGRFTISRDNSKNTLYLEMNSLRAEDTAVYYCARADWGGWFDPWGQGTLVTVSS VL: EIVLTQSPGTLSLSPGERATLSCRASQSVSSTYLAWYQQKPGQAPRLLIHGAFSRATGIPDRFSGSGSGPDFTLTISRLEPEDFAVYYCQQYGTSPFTFGPGTKVDIK , can you help?
A. 580
